# assayed-target: Axl (Homo sapiens, UniProt P30530)
# Construct: endogenous in cells; host or cells: HeLa cells
# Sequence (P30530 26-894): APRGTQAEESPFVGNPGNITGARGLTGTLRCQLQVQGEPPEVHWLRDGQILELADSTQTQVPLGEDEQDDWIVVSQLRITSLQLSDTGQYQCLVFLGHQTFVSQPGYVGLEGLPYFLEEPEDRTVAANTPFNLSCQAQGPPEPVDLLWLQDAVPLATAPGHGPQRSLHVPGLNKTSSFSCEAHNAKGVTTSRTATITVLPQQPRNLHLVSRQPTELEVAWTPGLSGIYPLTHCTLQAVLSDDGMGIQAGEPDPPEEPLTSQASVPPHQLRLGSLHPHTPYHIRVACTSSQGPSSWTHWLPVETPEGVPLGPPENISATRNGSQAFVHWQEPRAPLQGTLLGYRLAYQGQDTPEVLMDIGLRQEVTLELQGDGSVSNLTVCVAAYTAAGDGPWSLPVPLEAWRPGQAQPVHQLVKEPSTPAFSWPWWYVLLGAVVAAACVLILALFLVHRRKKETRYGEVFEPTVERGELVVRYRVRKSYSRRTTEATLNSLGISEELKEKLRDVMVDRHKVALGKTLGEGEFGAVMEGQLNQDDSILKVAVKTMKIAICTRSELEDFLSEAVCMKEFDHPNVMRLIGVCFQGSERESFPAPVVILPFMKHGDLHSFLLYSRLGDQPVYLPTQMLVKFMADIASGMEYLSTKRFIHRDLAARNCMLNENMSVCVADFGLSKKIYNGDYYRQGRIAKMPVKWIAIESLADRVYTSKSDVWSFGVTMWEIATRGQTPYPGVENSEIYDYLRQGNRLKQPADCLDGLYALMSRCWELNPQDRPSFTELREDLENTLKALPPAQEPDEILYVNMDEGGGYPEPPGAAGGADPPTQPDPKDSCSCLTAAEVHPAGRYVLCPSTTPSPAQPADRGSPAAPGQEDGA
# measurement-notes: Phospho-Akt in-cell Western assay (inhibition of Axl activity)
# Type: cell-based
# measurement-conditions: inhibition of Axl activity, Table 1
pIC50: −log10 of the molar value.
The compounds listed here are annotated with their pIC50.

Reported pIC50 for Cc1ccc(C(=O)n2nc(Nc3ccc(OCCN4CCCCC4)cc3)nc2N)cc1 [compound 53] : what is it?
> 6.00

Reported pIC50 for CC(C)Oc1ccc(C(=O)n2nc(Nc3ccc(OCCN4CCOCC4)cc3)nc2N)cc1 [compound 159] : what is it?
> 6.00

Reported pIC50 for CC(C)(C)Oc1ccc(C(=O)n2nc(Nc3ccc(N4CCOCC4)cc3)nc2N)cc1 [compound 57] : what is it?
> 6.00

Reported pIC50 for Cc1ccc(C(=O)n2nc(Nc3ccc4c(c3)OCCO4)nc2N)cc1Cl [compound 249] : what is it?
< 4.70

Reported pIC50 for Cc1cccc(C(=O)n2nc(Nc3cccc(OCC(=O)O)c3)nc2N)c1 [compound 224] : what is it?
< 4.70

Reported pIC50 for CC(C)Oc1ccc(C(=O)n2nc(Nc3cccc(OC(C)C)c3)nc2N)cc1 [compound 122] : what is it?
5.00 to 6.00

Reported pIC50 for Cc1ccc(C(=O)n2nc(Nc3ccc4c(c3)OCCO4)nc2N)cc1 [compound 104] : what is it?
5.00 to 6.00

Reported pIC50 for Nc1nc(Nc2ccc(N3CCOCC3)cc2)nn1C(=O)c1ccc(S(N)(=O)=O)cc1 [compound 70] : what is it?
< 4.70

* * *

The compounds listed here are annotated with their IC50.
# assayed-target: Axl (Homo sapiens, UniProt P30530)
# Construct: endogenous in cells; host or cells: HeLa cells
# Sequence (P30530 26-894): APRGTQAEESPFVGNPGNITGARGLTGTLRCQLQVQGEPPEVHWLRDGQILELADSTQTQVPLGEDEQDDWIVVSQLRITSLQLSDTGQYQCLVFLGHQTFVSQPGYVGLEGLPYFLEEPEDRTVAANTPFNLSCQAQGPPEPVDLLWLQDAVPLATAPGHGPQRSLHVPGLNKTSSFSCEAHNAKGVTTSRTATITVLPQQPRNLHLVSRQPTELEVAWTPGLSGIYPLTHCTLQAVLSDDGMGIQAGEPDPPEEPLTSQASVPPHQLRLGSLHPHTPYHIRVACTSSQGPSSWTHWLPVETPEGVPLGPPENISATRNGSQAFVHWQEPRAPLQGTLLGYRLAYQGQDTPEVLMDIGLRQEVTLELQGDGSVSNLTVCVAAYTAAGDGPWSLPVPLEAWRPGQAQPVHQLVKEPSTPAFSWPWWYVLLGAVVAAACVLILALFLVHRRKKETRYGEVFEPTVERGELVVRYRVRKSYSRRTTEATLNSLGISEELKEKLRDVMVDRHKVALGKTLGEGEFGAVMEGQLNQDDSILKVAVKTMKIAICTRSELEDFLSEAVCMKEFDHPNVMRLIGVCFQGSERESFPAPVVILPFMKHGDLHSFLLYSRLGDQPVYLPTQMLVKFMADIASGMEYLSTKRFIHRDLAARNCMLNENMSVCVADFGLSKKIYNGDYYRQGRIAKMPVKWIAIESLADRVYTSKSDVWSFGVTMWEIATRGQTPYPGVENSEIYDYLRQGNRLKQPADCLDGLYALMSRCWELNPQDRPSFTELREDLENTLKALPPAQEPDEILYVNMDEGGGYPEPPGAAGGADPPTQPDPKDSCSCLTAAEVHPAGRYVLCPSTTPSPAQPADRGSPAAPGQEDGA
# measurement-notes: Phospho-Akt in-cell Western assay (inhibition of Axl activity)
# Assay type: cell-based
# measurement-conditions: inhibition of Axl activity, Table 1

smiles-notation | IC50
CC(C)Oc1ccc(Nc2nc(N)n(C(=O)c3cccc(Cl)c3)n2)cc1 | > 20 µM
CC(C)Oc1cccc(C(=O)n2nc(Nc3ccc(OCCN4CCCCC4)cc3)nc2N)c1 | < 1 µM
CN(C)CCOc1ccc(Nc2nc(N)n(C(=O)c3ccc(OC(C)(C)C)cc3)n2)cc1 | < 1 µM
CC(C)Oc1ccc(C(=O)n2nc(Nc3ccc(O)cc3)nc2N)cc1 | 1 to 10 µM
Cc1cccc(C(=O)n2nc(Nc3cccc(OCC#N)c3)nc2N)c1 | > 20 µM

Reported IC50 for Nc1nc(Nc2ccc(Cl)cc2)nn1C(=O)c1ccc(Cl)cc1 : what is it?
> 20 µM

Reported IC50 for Nc1nc(Nc2ccc3c(c2)OCCO3)nn1C(=O)c1cccc(OCC(F)(F)F)c1 : what is it?
> 20 µM

* * *

# assayed-target: Axl (Homo sapiens, UniProt P30530)
# Construct: endogenous in cells; host or cells: HeLa cells
# Sequence (P30530 26-894): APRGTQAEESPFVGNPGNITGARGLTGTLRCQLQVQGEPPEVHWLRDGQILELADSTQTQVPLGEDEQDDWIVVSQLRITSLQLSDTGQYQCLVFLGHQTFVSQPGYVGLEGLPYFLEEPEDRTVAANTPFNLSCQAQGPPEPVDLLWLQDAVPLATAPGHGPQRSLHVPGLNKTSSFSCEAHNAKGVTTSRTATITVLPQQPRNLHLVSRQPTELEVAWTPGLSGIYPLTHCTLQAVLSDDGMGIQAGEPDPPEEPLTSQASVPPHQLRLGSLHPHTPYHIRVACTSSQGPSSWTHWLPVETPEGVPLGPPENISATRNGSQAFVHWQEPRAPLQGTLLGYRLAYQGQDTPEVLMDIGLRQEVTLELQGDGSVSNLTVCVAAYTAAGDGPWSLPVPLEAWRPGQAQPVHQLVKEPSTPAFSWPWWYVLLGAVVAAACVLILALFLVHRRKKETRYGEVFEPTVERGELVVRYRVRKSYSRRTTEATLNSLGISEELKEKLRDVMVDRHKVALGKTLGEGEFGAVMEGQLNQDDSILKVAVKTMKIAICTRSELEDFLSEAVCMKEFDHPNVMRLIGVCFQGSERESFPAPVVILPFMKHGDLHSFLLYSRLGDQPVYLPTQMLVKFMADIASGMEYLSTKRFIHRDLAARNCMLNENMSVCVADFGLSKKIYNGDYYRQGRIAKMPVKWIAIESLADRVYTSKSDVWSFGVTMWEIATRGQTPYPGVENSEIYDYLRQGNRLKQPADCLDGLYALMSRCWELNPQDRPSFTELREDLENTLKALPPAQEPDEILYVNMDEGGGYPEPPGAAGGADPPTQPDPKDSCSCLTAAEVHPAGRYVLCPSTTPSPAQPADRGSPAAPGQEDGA
# measurement-notes: Phospho-Akt in-cell Western assay (inhibition of Axl activity)
# Assay type: cell-based
# measurement-conditions: inhibition of Axl activity, Table 1
pIC50: −log10 of the molar value.
The molecules listed here are annotated with their pIC50.

Notebook entry, Axl (Homo sapiens, UniProt P30530) assay: pIC50 of COc1cccc(C(=O)n2nc(Nc3ccc(OCCN4CCCCC4)cc3)nc2N)c1 [compound 80] = ?
> 6.00

Notebook entry, Axl (Homo sapiens, UniProt P30530) assay: pIC50 of Cc1ccc(C(=O)n2nc(Nc3ccccc3)nc2N)cc1 [compound 137] = ?
< 4.70

Notebook entry, Axl (Homo sapiens, UniProt P30530) assay: pIC50 of COC(=O)COc1cccc(Nc2nc(N)n(C(=O)c3ccc(OC(C)C)cc3)n2)c1 [compound 135] = ?
5.00 to 6.00

Notebook entry, Axl (Homo sapiens, UniProt P30530) assay: pIC50 of Cc1ccc(C(=O)n2nc(Nc3ccccc3O)nc2N)cc1 [compound 211] = ?
< 4.70

Notebook entry, Axl (Homo sapiens, UniProt P30530) assay: pIC50 of N#Cc1ccc(C(=O)n2nc(Nc3ccc4c(c3)OCCO4)nc2N)cc1 [compound 245] = ?
< 4.70
